system: OVCAR-8; test: NCI tumour cell line growth inhibition, 48 h
Activity calls are given as the source filed them. Rule as the data show it: active = GI50 up to about 1.1 µM and inactive = higher.
Outcome codes: True = active, False = inactive

INSERT INTO measurements (compound, assigned_category) VALUES
  ('Cc1ccc(C(=O)Nc2ccc(S(=O)(=O)O)c3cc(S(=O)(=O)O)cc(S(=O)(=O)O)c23)cc1NC(=O)c1cccc(N)c1', 'False'),
  ('C=CCOc1cc2c(cc1C(C)c1ccc(OC)cc1)OCO2 (stereo not drawn)', 'True'),
  ('Cc1ccc(S(=O)(=O)Nc2cccc3c(=O)nc[nH]c23)cc1', 'False'),
  ('O=C(O)CCCc1ccc2c(c1)CC1(C2)Cc2cc3c(cc2C1)CCCC3', 'False'),
  ('CCOC(=O)C(Cc1ccc(N=NN(C)C)cc1)NC(=O)CC1c2ccccc2-c2ccccc21 (stereo not drawn)', 'False'),
  ('Cc1c(O)c(OC2OC(CO)C(O)C(O)C2O)cc2c1CC[C@@H]1C2(C)C(=O)C[C@]2(C)[C@@H]([C@@](C)(O)C(=O)CCC(C)(C)O)[C@H](O)C[C@@]12C (stereo partly drawn)', 'False'),
  ('Cn1c(C(C)(C)OC(=O)Oc2ccccc2)cnc1[N+](=O)[O-]', 'False'),
  ('NC(CCCCNC(=O)OCc1ccccc1)C(=O)NC(CCCCNC(=O)OCc1ccccc1)C(=O)ON1C(=O)CCC1=O (stereo not drawn)', 'False');
